Assay target: PD-1 (UniProt Q15116 25-167, limits assumed)
Sequence (Q15116 25-167 limits assumed): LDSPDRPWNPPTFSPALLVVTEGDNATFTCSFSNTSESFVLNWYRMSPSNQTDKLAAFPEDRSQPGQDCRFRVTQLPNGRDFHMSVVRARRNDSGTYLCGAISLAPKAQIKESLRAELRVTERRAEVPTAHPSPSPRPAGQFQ
Assay info: ELISA, OD mutant/OD WT; ↓=less than 70%
Below, each entry is listed alongside its reported binding activity vs wild type.
Readout type: binding activity vs wild type

Binder	Readout type	Result
anti-PD-1 antibody 1 heavy chain Y32C (antibody, human IgG4 S228P, kappa, V domains shown) VH: QVQLVQSGVEVKKPGASVKVSCKASGYTFTNCYMYWVRQAPGQGLEWMGGINPSNGGTNFNEKFKNRVTLTTDSSTTTAYMELKSLQFDDTAVYYCARRDYRFDMGFDYWGQGTTVTVSS VL: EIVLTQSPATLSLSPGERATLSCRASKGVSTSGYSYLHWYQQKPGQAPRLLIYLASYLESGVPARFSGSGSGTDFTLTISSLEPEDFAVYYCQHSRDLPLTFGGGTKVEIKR	binding activity vs wild type	< 70%
anti-PD-1 antibody 2 heavy chain K65C (antibody, human IgG4 S228P, kappa, V domains shown) VH: QVQLVESGGGVVQPGRSLRLDCKASGITFSNSGMHWVRQAPGKGLEWVAVIWYDGSKRYYADSVCGRFTISRDNSKNTLFLQMNSLRAEDTAVYYCATNDDYWGQGTLVTVSS VL: EIVLTQSPATLSLSPGERATLSCRASQSVSSYLAWYQQKPGQAPRLLIYDASNRATGIPARFSGSGSGTDFTLTISSLEPEDFAVYYCQQSSNWPRTFGQGTKVEIKR	binding activity vs wild type	< 70%
anti-PD-1 antibody 2 heavy chain Y60C (antibody, human IgG4 S228P, kappa, V domains shown) VH: QVQLVESGGGVVQPGRSLRLDCKASGITFSNSGMHWVRQAPGKGLEWVAVIWYDGSKRYCADSVKGRFTISRDNSKNTLFLQMNSLRAEDTAVYYCATNDDYWGQGTLVTVSS VL: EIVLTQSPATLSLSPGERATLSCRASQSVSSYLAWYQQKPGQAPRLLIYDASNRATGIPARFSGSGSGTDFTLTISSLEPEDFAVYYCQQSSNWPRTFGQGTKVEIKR	binding activity vs wild type	< 70%
